- Tested on: Staphylococcus aureus
- test_protocol: microbe, parasite or virus in culture
- Assay type: functional
- test_parameters: ATCC 33591
- Description: Antibacterial activity against methicillin-resistant Staphylococcus aureus ATCC 33591 after 12 to 18 hrs by twofold dilution method
endpoint: MIC

| compound | target_under_test | reported_measurement |
| --- | --- | --- |
| CCn1n[n+](C)c2c1C(=O)c1ccccc1C2=O.[Cl-] | Staphylococcus aureus | 1 µg/mL |
| NCC[C@H](O)C(=O)N[C@@H]1C[C@H](N)[C@@H](O[C@H]2O[C@H](CN)[C@@H](O)[C@H](O)[C@H]2O)[C@H](O)[C@H]1O[C@H]1O[C@H](CO)[C@@H](O)[C@H](N)[C@H]1O | Staphylococcus aureus | 16 µg/mL |
| C[n+]1nn(Cc2ccccn2)c2c1C(=O)c1ccccc1C2=O.[Cl-] | Staphylococcus aureus | 2 µg/mL |
| CCCCCCCCCCCCCCCC[N+](C)(C)Cc1ccccc1.[Cl-] [CETALKONIUM CHLORIDE] | Staphylococcus aureus | 1 µg/mL |
| C[n+]1nn(Cc2ccccc2)c2c1C(=O)c1ccccc1C2=O.[Cl-] | Staphylococcus aureus | 0.5 µg/mL |
| NC[C@@H]1O[C@H](O[C@H]2[C@@H](O)[C@H](O[C@@H]3[C@@H](O)[C@H](N)C[C@H](N)[C@H]3O[C@H]3O[C@H](CN)[C@@H](O)[C@H](O)[C@H]3N)O[C@@H]2CO)[C@H](N)[C@@H](O)[C@@H]1O | Staphylococcus aureus | 125 µg/mL |
| CCCCCCCCn1n[n+](C)c2c1C(=O)c1ccccc1C2=O.[Cl-] | Staphylococcus aureus | 0.5 µg/mL |

The origin of these recorded values is ChEMBL document CHEMBL1641534.
